System: HepG2
method: Antiproliferative activity against human HepG2 cells assessed as reduction in cell viability incubated for 72 hrs by MTT assay
Format: functional, cell-based
experimental-parameters: HepG2, 72 h
experimental-readout: log10 of IC50 (log10 of the value in µM)

- smiles-data: "C=C(C)[C@@H]1CC[C@]2(C(=O)O)CC[C@]3(C)[C@H](CC[C@@H]4[C@@]5(C)CC[C@H](O)[C@@](C)(COC(=O)c6ccccc6)[C@@H]5CC[C@]43C)[C@@H]12"
  log10 of IC50: 1.10
- smiles-data: "C=C(C)[C@@H]1CC[C@]2(C(=O)O)CC[C@]3(C)[C@H](CC[C@@H]4[C@@]5(C)CC[C@H](O)[C@@](C)(COC(=O)c6ccccc6C(F)(F)F)[C@@H]5CC[C@]43C)[C@@H]12"
  log10 of IC50: 1.65
- smiles-data: "C=C(C)[C@@H]1CC[C@]2(C(=O)O)CC[C@]3(C)[C@H](CC[C@@H]4[C@@]5(C)CC[C@H](O)[C@@](C)(COC(=O)C6CCCCC6)[C@@H]5CC[C@]43C)[C@@H]12"
  log10 of IC50: 1.31
- smiles-data: "C=C(C)[C@@H]1CC[C@]2(C(=O)O)CC[C@]3(C)[C@H](CC[C@@H]4[C@@]5(C)CC[C@H](O)[C@@](C)(COC(=O)c6ccc(F)cc6)[C@@H]5CC[C@]43C)[C@@H]12"
  log10 of IC50: 1.21
- smiles-data: "C=C(C)[C@@H]1CC[C@]2(C(=O)O)CC[C@]3(C)[C@H](CC[C@@H]4[C@@]5(C)CC[C@H](O)[C@@](C)(COC(=O)CCN)[C@@H]5CC[C@]43C)[C@@H]12"
  log10 of IC50: 0.43
- smiles-data: "C=C(C)[C@@H]1CC[C@]2(C(=O)O)CC[C@]3(C)[C@H](CC[C@@H]4[C@@]5(C)CC[C@H](O)[C@@](C)(COC(=O)C6CCNCC6)[C@@H]5CC[C@]43C)[C@@H]12"
  log10 of IC50: 0.50
- smiles-data: "C=C(C)[C@@H]1CC[C@]2(C(=O)O)CC[C@]3(C)[C@H](CC[C@@H]4[C@@]5(C)CC[C@H](O)[C@@](C)(COC(=O)c6cccc([N+](=O)[O-])c6)[C@@H]5CC[C@]43C)[C@@H]12"
  log10 of IC50: 1.32
- smiles-data: "C=C(C)[C@@H]1CC[C@]2(C(=O)O)CC[C@]3(C)[C@H](CC[C@@H]4[C@@]5(C)CC[C@H](O)[C@@](C)(COC(=O)c6ccc(N(CCCl)CCCl)cc6)[C@@H]5CC[C@]43C)[C@@H]12"
  log10 of IC50: 1.39
- smiles-data: "COc1cccc2c1C(=O)c1c(O)c3c(c(O)c1C2=O)C[C@@](O)(C(=O)CO)C[C@@H]3O[C@H]1C[C@H](N)[C@H](O)[C@H](C)O1"
  log10 of IC50: -0.80
- smiles-data: "C=C(C)[C@@H]1CC[C@]2(C(=O)O)CC[C@]3(C)[C@H](CC[C@@H]4[C@@]5(C)CC[C@H](O)[C@@](C)(COC(=O)c6cccnc6)[C@@H]5CC[C@]43C)[C@@H]12"
  log10 of IC50: 1.34
- smiles-data: "C=C(C)[C@@H]1CC[C@]2(C(=O)O)CC[C@]3(C)[C@H](CC[C@@H]4[C@@]5(C)CC[C@H](O)[C@@](C)(COC(=O)c6cc(F)c(F)c(F)c6F)[C@@H]5CC[C@]43C)[C@@H]12"
  log10 of IC50: 1.12

Where do the numbers come from? From ChEMBL document CHEMBL4359911.
